# Test system: RXF 393 renal
# test.name: NCI tumour cell line growth inhibition, 48 h
Give GI50 for every item shown.

The following compounds each have a reported value; give each one's GI50.
1. CN(C)CCCC(=O)Nc1ccc(Cn2nnc3c2C(=O)c2nnn(Cc4ccc(NC(=O)CCCN(C)C)cc4)c2C3=O)cc1
2. COC(=O)[C@H](Cc1ccccc1)NC(=O)[C@@H](OC)[C@@H]1Cc2cc3cc(OC4CC(OC5CC(O)C(O)C(C)O5)C(O)C(C)O4)c(C)c(O)c3c(O)c2C(=O)[C@H]1OC1CC(OC2CC(OC3CC(C)(O)C(O)C(C)O3)C(O)C(C)O2)C(O)C(C)O1 (some centres undefined)
3. Oc1ccc(-c2nc3ccc4[nH]ncc4c3c3c2CCCC3)c2cccnc12
4. CC(C)[C@@H](CS(=O)(=O)C(C)C)N1C(=O)[C@@](C)(CC(=O)O)C[C@H](c2cccc(Cl)c2)[C@H]1c1ccc(Cl)cc1

Outgoing:
1: 5000 nM; 2: 4.6 nM; 3: 266 nM; 4: 19500 nM
